# assay.overview: Ratio of IC50 for dark toxicity in human Keratinocytes to IC50 for phototoxicity in human Keratinocytes in presence of UVA at 320 to 400 nm
# Format: cell-based, Keratinocyte
# details: read-out: Ratio IC50

[
  {
    "smiles.string": "Cc1nsc(N2C[C@H]3CC[C@@H](C2)[C@@H]3Nc2nc3c(OCC(F)(F)F)cccn3n2)n1",
    "selectivity ratio": 1.1
  },
  {
    "smiles.string": "Cc1cc(N2C[C@H]3CC[C@@H](C2)[C@@H]3Nc2nc3c(OCC(F)(F)F)cccn3n2)sn1",
    "selectivity ratio": 1
  }
]

====

# Test system: Mus musculus
# assay.overview: In vivo modulation of gamma secretase in APP-Swedish transgenic mouse assessed as reduction in Abeta42 production by measuring remaining Abeta42 level at 3 mg/kg, po measured after 4 hrs by ELISA or AlphaLISA assay relative to control
# Format: functional
Reported values of remaining Abeta42 level (% of control) for individual entries

[
  {
    "compound": "Cc1nsc(N2CC[C@@H](Nc3nc4c(-c5ccc(F)c(F)c5F)cccn4n3)C(F)(F)C2)n1",
    "units.label": "%",
    "remaining Abeta42 level (% of control)": 64
  },
  {
    "compound": "Cc1nsc(N2C[C@H]3CC[C@@H](C2)[C@@H]3Nc2nc3c(OCC(F)(F)F)cccn3n2)n1",
    "units.label": "%",
    "remaining Abeta42 level (% of control)": 33
  },
  {
    "compound": "Cc1nsc(N2CC3CCC(C2)C3Nc2nc3c(-c4ccc(F)c(F)c4F)cccn3n2)n1 (centres undefined)",
    "units.label": "%",
    "remaining Abeta42 level (% of control)": 27
  }
]

====

# assay.overview: Solubility of compound by lyophilisation solubility assay
# Type: physicochemical

[
  {
    "compound": "FC(F)(F)COc1cccn2nc(N[C@@H]3[C@@H]4CC[C@H]3CN(c3ccnc(C(F)(F)F)c3)C4)nc12",
    "solubility": "11 µg/mL"
  },
  {
    "compound": "Cc1nsc(N2C[C@H]3CC[C@@H](C2)[C@@H]3Nc2nc3c(O[C@@H](C)C(F)(F)F)cccn3n2)n1",
    "solubility": "78 µg/mL"
  },
  {
    "compound": "Cc1cc(N2C[C@H]3CC[C@@H](C2)[C@@H]3Nc2nc3c(OCC(F)(F)F)ccc(C(F)(F)F)n3n2)sn1",
    "solubility": "0.6 µg/mL"
  },
  {
    "compound": "Cc1nnc(N2C[C@H]3CC[C@@H](C2)[C@@H]3Nc2nc3c(OC(C)C(F)(F)F)ccc(C(F)(F)F)n3n2)o1 (some centres undefined)",
    "solubility": "77 µg/mL"
  }
]

====

Reported values of log10(IC50) for individual entries
# study.system: Gamma-secretase
# assay.overview: Modulation of gamma secretase in human H4 cells over expressing human APP695 harboring K595N/M596L Swedish double mutant assessed as reduction in Abeta42 production after 24 hrs by Alphalisa assay
measure: log10(IC50) (log10 of the value in nM)

[
  {
    "compound": "Cc1cc(N2C[C@H]3CC[C@@H](C2)[C@@H]3Nc2nc3c(O[C@@H](C)C(F)(F)F)cccn3n2)sn1",
    "log10(IC50)": 0.78
  },
  {
    "compound": "Cc1nsc(N2C[C@H]3CC[C@@H](C2)[C@@H]3Nc2nc3c(OCC4COC4)cccn3n2)n1",
    "log10(IC50)": 1.69
  },
  {
    "compound": "COc1cccn2nc(N[C@@H]3[C@@H]4CC[C@H]3CN(c3nc(C)ns3)C4)nc12",
    "log10(IC50)": 2.36
  },
  {
    "compound": "Cc1noc(N2C[C@H]3CC[C@@H](C2)[C@@H]3Nc2nc3c(OCC(F)(F)F)ccc(C(F)(F)F)n3n2)n1",
    "log10(IC50)": 1.52
  },
  {
    "compound": "Cc1nsc(N2C[C@H]3CC[C@@H](C2)[C@@H]3Nc2nc3c(OC(F)(F)F)cccn3n2)n1",
    "log10(IC50)": 1.79
  },
  {
    "compound": "Cc1nsc(N2C[C@H]3CC[C@@H](C2)[C@@H]3Nc2nc3c(OCCC(F)(F)F)cccn3n2)n1",
    "log10(IC50)": 1.15
  },
  {
    "compound": "Cc1nsc(N2C[C@H]3CC[C@@H](C2)[C@@H]3Nc2nc3c(O[C@@H](C)C(F)(F)F)cccn3n2)n1",
    "log10(IC50)": 1.20
  },
  {
    "compound": "Cc1cc(N2C[C@H]3CC[C@@H](C2)[C@@H]3Nc2nc3c(OCC(F)(F)C(F)(F)F)cccn3n2)on1",
    "log10(IC50)": 0.85
  },
  {
    "compound": "Cc1noc(N2C[C@H]3CC[C@@H](C2)[C@@H]3Nc2nc3c(OCC(F)(F)C(F)(F)F)cccn3n2)n1",
    "log10(IC50)": 1.30
  },
  {
    "compound": "Cc1cc(N2C[C@H]3CC[C@@H](C2)[C@@H]3Nc2nc3c(OCC(F)F)ccc(C(F)(F)F)n3n2)ncn1",
    "log10(IC50)": 1.32
  },
  {
    "compound": "Cc1nsc(N2CC3CCC(C2)C3Nc2nc3c(-c4ccc(F)c(F)c4F)cccn3n2)n1 (stereo unspecified)",
    "log10(IC50)": 0.65
  },
  {
    "compound": "Cc1nnc(N2C[C@H]3CC[C@@H](C2)[C@@H]3Nc2nc3c(OC(C)C(F)(F)F)ccc(C(F)(F)F)n3n2)o1 (stereo partly specified)",
    "log10(IC50)": 1.43
  },
  {
    "compound": "Cc1nnc(N2C[C@H]3CC[C@@H](C2)[C@@H]3Nc2nc3c(OC(C)C(F)(F)F)cccn3n2)o1 (stereo partly specified)",
    "log10(IC50)": 2.03
  },
  {
    "compound": "Cc1noc(N2C[C@H]3CC[C@@H](C2)[C@@H]3Nc2nc3c(OCC(F)(F)F)cccn3n2)n1",
    "log10(IC50)": 2.06
  },
  {
    "compound": "Cc1nsc(N2C[C@H]3CC[C@@H](C2)[C@@H]3Nc2nc3c(OCC(F)(F)F)cccn3n2)n1",
    "log10(IC50)": 1.32
  },
  {
    "compound": "Cc1nsc(N2C[C@H]3CC[C@@H](C2)[C@@H]3Nc2nc3c(OCCCC(F)(F)F)cccn3n2)n1",
    "log10(IC50)": 1.15
  }
]

====

# study.system: hERG (KCNH2) (Homo sapiens)
# Sequence (Q12809 whole entry): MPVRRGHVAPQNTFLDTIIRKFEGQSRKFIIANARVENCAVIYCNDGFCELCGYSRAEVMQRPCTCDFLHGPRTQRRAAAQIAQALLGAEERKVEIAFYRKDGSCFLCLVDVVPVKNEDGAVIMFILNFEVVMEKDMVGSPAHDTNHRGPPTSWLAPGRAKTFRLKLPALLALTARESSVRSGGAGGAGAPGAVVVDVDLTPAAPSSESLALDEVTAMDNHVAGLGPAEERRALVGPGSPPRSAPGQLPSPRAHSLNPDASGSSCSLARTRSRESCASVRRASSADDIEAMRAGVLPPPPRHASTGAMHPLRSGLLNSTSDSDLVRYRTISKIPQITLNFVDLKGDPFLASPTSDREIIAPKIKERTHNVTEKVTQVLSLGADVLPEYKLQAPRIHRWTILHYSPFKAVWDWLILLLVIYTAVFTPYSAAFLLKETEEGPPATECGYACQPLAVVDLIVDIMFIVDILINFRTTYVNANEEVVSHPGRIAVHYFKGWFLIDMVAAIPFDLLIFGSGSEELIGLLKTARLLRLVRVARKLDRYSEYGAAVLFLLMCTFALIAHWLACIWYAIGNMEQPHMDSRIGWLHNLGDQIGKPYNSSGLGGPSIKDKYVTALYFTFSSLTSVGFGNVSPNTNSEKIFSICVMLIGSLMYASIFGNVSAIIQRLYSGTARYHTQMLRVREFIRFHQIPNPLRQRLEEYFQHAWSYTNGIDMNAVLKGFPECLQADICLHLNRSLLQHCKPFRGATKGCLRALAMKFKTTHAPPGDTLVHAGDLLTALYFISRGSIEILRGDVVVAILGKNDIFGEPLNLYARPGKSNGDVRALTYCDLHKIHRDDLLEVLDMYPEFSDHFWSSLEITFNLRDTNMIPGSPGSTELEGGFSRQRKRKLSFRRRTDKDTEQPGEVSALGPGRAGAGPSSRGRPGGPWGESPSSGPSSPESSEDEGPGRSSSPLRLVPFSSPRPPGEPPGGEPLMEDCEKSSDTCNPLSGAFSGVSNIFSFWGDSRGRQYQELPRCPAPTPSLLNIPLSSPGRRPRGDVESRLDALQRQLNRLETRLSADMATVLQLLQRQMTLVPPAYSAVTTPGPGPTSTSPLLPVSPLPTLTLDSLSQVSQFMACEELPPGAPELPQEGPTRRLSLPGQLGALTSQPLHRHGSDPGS
# assay.overview: Inhibition of human ERG
# details: human
// assign 1.0 if IC20 falls strictly below 4 µM, else 0.0 (ties count as 0.0)

[
  {
    "compound": "Cc1cc(N2C[C@H]3CC[C@@H](C2)[C@@H]3Nc2nc3c(OCC(F)F)ccc(C(F)(F)F)n3n2)ncn1",
    "class": 1.0
  },
  {
    "compound": "Cc1nsc(N2CC3CCC(C2)C3Nc2nc3c(-c4ccc(F)c(F)c4F)cccn3n2)n1 (stereo unspecified)",
    "class": 1.0
  },
  {
    "compound": "Cc1cc(N2C[C@H]3CC[C@@H](C2)[C@@H]3Nc2nc3c(OCC(F)(F)F)cccn3n2)sn1",
    "class": 1.0
  },
  {
    "compound": "Cc1nsc(N2C[C@H]3CC[C@@H](C2)[C@@H]3Nc2nc3c(OCC(F)(F)F)cccn3n2)n1",
    "class": 0.0
  },
  {
    "compound": "Cc1noc(N2C[C@H]3CC[C@@H](C2)[C@@H]3Nc2nc3c(OCC(F)(F)F)ccc(C(F)(F)F)n3n2)n1",
    "class": 1.0
  },
  {
    "compound": "Cc1nnc(N2C[C@H]3CC[C@@H](C2)[C@@H]3Nc2nc3c(O[C@@H](C)C(F)(F)F)ccc(C(F)(F)F)n3n2)o1",
    "class": 0.0
  }
]

====

# study.system: Gamma-secretase (Homo sapiens) (UniProt Q96BI3+Q9NZ42+Q8WW43+P49768+Q92542+P49810)
# assay.overview: Modulation of gamma secretase in human H4 cells over expressing human APP695 harboring K595N/M596L Swedish double mutant assessed as reduction in Abeta42 production after 24 hrs by Alphalisa assay
# Format: cell-based
Think of 3 nM as a floor: if fIC50 stands on it or above, it is Fulfilled; beneath it, Not fulfilled.

[
  {
    "molecule": "Cc1nsc(N2CC3CCC(C2)C3Nc2nc3c(-c4ccc(F)c(F)c4F)cccn3n2)n1 (configuration not stated)",
    "study.system": "Gamma-secretase (Homo sapiens) (UniProt Q96BI3+Q9NZ42+Q8WW43+P49768+Q92542+P49810)",
    "class": "Not fulfilled"
  },
  {
    "molecule": "Cc1nnc(N2C[C@H]3CC[C@@H](C2)[C@@H]3Nc2nc3c(O[C@@H](C)C(F)(F)F)ccc(C(F)(F)F)n3n2)o1",
    "study.system": "Gamma-secretase (Homo sapiens) (UniProt Q96BI3+Q9NZ42+Q8WW43+P49768+Q92542+P49810)",
    "class": "Fulfilled"
  },
  {
    "molecule": "Cc1cc(N2C[C@H]3CC[C@@H](C2)[C@@H]3Nc2nc3c(OCC(F)F)ccc(C(F)(F)F)n3n2)ncn1",
    "study.system": "Gamma-secretase (Homo sapiens) (UniProt Q96BI3+Q9NZ42+Q8WW43+P49768+Q92542+P49810)",
    "class": "Fulfilled"
  },
  {
    "molecule": "Cc1nsc(N2C[C@H]3CC[C@@H](C2)[C@@H]3Nc2nc3c(OCC(F)(F)F)cccn3n2)n1",
    "study.system": "Gamma-secretase (Homo sapiens) (UniProt Q96BI3+Q9NZ42+Q8WW43+P49768+Q92542+P49810)",
    "class": "Fulfilled"
  },
  {
    "molecule": "Cc1nsc(N2CC[C@@H](Nc3nc4c(-c5ccc(F)c(F)c5F)cccn4n3)C(F)(F)C2)n1",
    "study.system": "Gamma-secretase (Homo sapiens) (UniProt Q96BI3+Q9NZ42+Q8WW43+P49768+Q92542+P49810)",
    "class": "Fulfilled"
  },
  {
    "molecule": "Cc1noc(N2C[C@H]3CC[C@@H](C2)[C@@H]3Nc2nc3c(OCC(F)(F)F)ccc(C(F)(F)F)n3n2)n1",
    "study.system": "Gamma-secretase (Homo sapiens) (UniProt Q96BI3+Q9NZ42+Q8WW43+P49768+Q92542+P49810)",
    "class": "Fulfilled"
  }
]
